The origin of these recorded values is ChEMBL document CHEMBL3813664.

Each entry below carries its recorded Activity.
system: HT-29; assay: Downregulation of TERT gene expression in human HT-29 cells assessed as gene expression levels at 3 ug/ml after 48 hrs by RT-qPCR analysis relative to control; type: functional
Record the value in %, omitting the unit from your answer.

Supply reported Activity belonging to this molecule: COc1ccc(-c2ccc(N)cc2)c(OC)c1
40

Retrieve Activity measured for Nc1ccccc1-c1cccc(O)c1 and print it.
77

Give the reported Activity for this molecule. COc1ccc(-c2cccc(N)c2)cc1OC
90

====

tested on: HT-29; experiment: Downregulation of VEGFA gene expression in human HT-29 cells assessed as gene expression levels at 3 ug/ml after 48 hrs by RT-qPCR analysis relative to control; assay type: functional
Catalogue of Activity values
API: value field is a number in %; no unit string.

Here is how some compounds turned out for Activity.
>>> meas_value("Nc1ccccc1-c1cccc(O)c1")
54
>>> meas_value("Oc1ccccc1-c1ccccc1O")
23

Now consider a different compound.
Read the entry COc1ccc(-c2cccc(N)c2)cc1OC and write its reported Activity.
57

====

system: HT-29; assay: Downregulation of VEGFA gene expression in human HT-29 cells assessed as gene expression levels at 3 ug/ml after 48 hrs by RT-qPCR analysis relative to control; assay type: functional
A collection of molecules and their measured Activity
Record the value in %, omitting the unit from your answer.

>>> meas_value("Oc1ccc(-c2ccccc2O)cc1")
16

Report Activity for Oc1cccc(-c2ccccc2O)c1
10

Give the reported value of Activity for this record: Oc1ccc(-c2cccc(O)c2)cc1
35

Return Activity for the following molecule: Oc1cccc(-c2cccc(O)c2)c1
5

Return reported Activity. Input molecule: COc1ccccc1-c1ccccc1O
17

Quick one: give measured Activity for Nc1cccc(-c2ccc(O)cc2)c1
42

State its Activity: COc1ccc(-c2ccc(N)cc2)cc1OC
48

Write down Activity measured for item COc1ccc(-c2ccc(N)cc2)c(OC)c1
41

====

Each entry below carries its reported log10 of IC50.
system: MCF7; test: Cytotoxicity against human MCF7 cells assessed as reduction in cell growth after 3 days by MTT assay; assay type: functional, cell-based; details: MCF7, 72 h
Heads up, the numbers here are log10 of IC50 in mg/L units.

// solved cases for log10 of IC50 follow
>>> meas_value("Nc1ccc(-c2ccc(O)cc2)cc1")
1.70
>>> meas_value("Nc1ccccc1-c1cccc(O)c1")
1.20
>>> meas_value("COc1cccc(-c2ccccc2)c1")
1.67
>>> meas_value("COc1ccc(-c2cccc(O)c2)cc1OC")
1.68
>>> meas_value("Oc1ccc(-c2ccccc2)cc1")
1.67
>>> meas_value("COc1ccc(-c2ccc(N)cc2)cc1OC")
0.74
>>> meas_value("Nc1ccc(-c2ccccc2)cc1")
0.15
>>> meas_value("Nc1ccc(-c2ccccc2O)cc1")
1.72

Proceed to the following item.
Please indicate log10 of IC50 recorded for Oc1ccccc1-c1ccccc1
1.71

====

experiment: Therapeutic index, ratio of IC50 for HEK293 cells to IC50 for human MCF7 cells; format: cell-based; settings: HEK293 cells versus MCF7 cells, read-out: Ratio IC50
Consider the following compounds and their measured selectivity ratio readings.

Some compounds with known selectivity ratio results, for comparison:
>>> meas_value("COc1ccc(-c2cccc(N)c2)c(OC)c1")
"< 0.3"
>>> meas_value("COc1ccc(-c2ccc(O)cc2)c(OC)c1")
"> 2"

--- query ---
Check the records and state selectivity ratio for Nc1cccc(-c2ccc(O)cc2)c1
> 15

====

test: Therapeutic index, ratio of IC50 for HEK293 cells to IC50 for human HT-29 cells; type: cell-based; conditions: HEK293 cells versus HT-29 cells, read-out: Ratio IC50
# selectivity ratio listing for each entry below
Please reply with the number alone, leaving off any unit.

>>> meas_value("COc1ccccc1-c1ccccc1")
1

Write down selectivity ratio measured for item Nc1cccc(-c2ccccc2O)c1
1

Identify the reported selectivity ratio for the following entry. Nc1ccccc1-c1ccc(O)cc1
1

====

tested on: MCF7; assay: Cytotoxicity against human MCF7 cells assessed as reduction in cell growth after 3 days by MTT assay; assay type: functional, cell-based; conditions: MCF7, 72 h
The following molecules are shown together with reported IC50 values.

Solved cases (5 shown):
>>> meas_value("COc1ccc(-c2cccc(N)c2)c(OC)c1")
"> 100 µg/mL"
>>> meas_value("Oc1ccc(-c2ccccc2O)cc1")
"> 100 µg/mL"
>>> meas_value("COc1ccc(-c2ccc(N)cc2)c(OC)c1")
"> 100 µg/mL"
>>> meas_value("Nc1ccc(-c2cccc(O)c2)cc1")
"> 100 µg/mL"
>>> meas_value("Oc1cccc(-c2ccccc2O)c1")
"> 100 µg/mL"

// below: IC50 requested for another molecule
Give the value of IC50 reported for the following: COc1ccc(-c2ccccc2)c(OC)c1
> 100 µg/mL
